Listed below are compounds with Ki for 5-hydroxytryptamine receptor 2A (Homo sapiens, UniProt P28223), each taken from published literature.

Answered cases to consult:
[
  {
    "compound": "O=C(Nc1cccnc1)N1CCc2cc(-c3ccccc3)c(Cl)cc21",
    "Ki": "3980 nM"
  },
  {
    "compound": "c1ccc(-c2ccc(N3CCN(Cc4c[nH]c5ncccc45)CC3)cc2)cc1",
    "Ki": "1930 nM"
  },
  {
    "compound": "COc1ccccc1N1CCN(CCCCCNC(=O)c2nnn(Cc3ccccc3Br)c2C)CC1",
    "Ki": "41 nM"
  },
  {
    "compound": "CC(=O)Nc1ccc(N2CC=C(c3ccc(Cl)c(Cl)c3)C2=O)cc1OCCN1CCCCC1",
    "Ki": "> 1580 nM"
  }
]

Batch request: Ki per item, same order as input.
1. CN1CCN(CCCN2C(=O)c3ccccc3/C=C\c3ccccc32)CC1
2. O=C1c2cccc3cccc(c23)N1CCCCCCN1CCN(c2cccc(C(F)(F)F)c2)CC1
3. CCNCCc1cccc2[nH]cc(S(=O)(=O)c3ccccc3)c12
4. COc1ccc(N2Cc3sc4ccccc4c3C2=O)cc1OCCN1CCC(C)CC1
5. Cc1ncccc1Oc1ccc(NC(=O)N2CCc3c2cc(C(F)(F)F)c2c3CCO2)cn1

1. 48300 nM
2. 773 nM
3. 389 nM
4. > 794 nM
5. 501 nM

The reported value for CCC(Sc1cc(Cl)ccc1Cl)c1nc(N)nc(N2CCNCC2)n1 (racemic) in terms of Ki is 188 nM
